target: Recombinant human Met (c-Met) (Homo sapiens, UniProt P08581); construct: purchased Invitrogen PV3143; test: Inhibition of c-Met kinase activity using Transcreener FP assay; format: biochemical; conditions: Poly E4Y substrate, 28° C. 45 min, read-out: IC50, inhibition of c-Met kinase activity
Sequence (P08581 956-1390 limits assumed): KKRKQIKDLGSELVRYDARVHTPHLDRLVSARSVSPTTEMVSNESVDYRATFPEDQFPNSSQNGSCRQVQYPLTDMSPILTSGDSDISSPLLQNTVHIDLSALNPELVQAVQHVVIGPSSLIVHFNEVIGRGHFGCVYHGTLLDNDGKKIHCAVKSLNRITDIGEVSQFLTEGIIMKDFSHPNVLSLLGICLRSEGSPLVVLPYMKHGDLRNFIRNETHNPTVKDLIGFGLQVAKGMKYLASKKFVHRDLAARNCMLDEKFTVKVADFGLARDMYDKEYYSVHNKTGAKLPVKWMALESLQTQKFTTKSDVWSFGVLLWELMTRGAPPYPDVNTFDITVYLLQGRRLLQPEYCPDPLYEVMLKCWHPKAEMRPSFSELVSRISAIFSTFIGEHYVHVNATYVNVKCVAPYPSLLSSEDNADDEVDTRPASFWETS
Recorded measurements of IC50, one per entry

Examples with their reported IC50 follow.
[[record]]
molecule_smiles = "Clc1cncc(Oc2cnc3nnn(Cc4ccc5ncccc5c4)c3n2)c1"
metric = "IC50"
obs_value = "0.001 to 0.1 µM"

[[record]]
molecule_smiles = "c1ccc(Sc2cnc3nnn(Cc4ccc5ncccc5c4)c3n2)nc1"
metric = "IC50"
obs_value = "0.001 to 0.1 µM"

[[record]]
molecule_smiles = "OCCn1cc(-c2ccc3nnn(Cc4ccc5ncsc5c4)c3n2)cn1"
metric = "IC50"
obs_value = "0.1 to 1 µM"

[[record]]
molecule_smiles = "c1nn(C2COC2)cc1-c1cnc2nnn(Cc3cc4[nH]ncc4s3)c2n1"
metric = "IC50"
obs_value = "0.1 to 1 µM"


Please look up its IC50: OCC1CCN(c2ccc3nnn(Cc4ccc5ncccc5c4)c3n2)CC1
0.001 to 0.1 µM

Please look up its IC50: OCCn1cc(-c2cnc3nnn(Cc4ccc5ncc(CO)n5c4)c3n2)cn1
0.001 to 0.1 µM

Please look up its IC50: CNCCCn1cc(-c2ccc3nnn(Cc4ccc5ncccc5c4)c3n2)cn1
0.1 to 1 µM
